experiment: Pharmacokinetic study in rats after oral administration of SYD extract and its single and combined TCM extracts (UPLC-MS/MS of plasma); settings: male, Sprague-Dawley, rat, plasma, po, 2.43 g/kg, AUC(0–t), rat plasma, oral AS + GU extract 2.43 g/kg, n = 6
metric: AUC(0-t) (ng·h/mL)
Please give a number only; it is taken to be in ng·h/mL.

> print(dat)
                                        mol    metric  test.result
1  O=C(/C=C/c1ccc(O)c(O)c1)O[C@@H]1C[C@](O)(C(=O)O)C[C@@H](O)[C@H]1O  AUC(0-t)         1150

Please examine the following record next.
Short answer for O=C1C[C@@H](c2ccc(O[C@@H]3O[C@H](CO)[C@@H](O)[C@H](O)[C@H]3O)cc2)Oc2cc(O)ccc21 : AUC(0-t) was 220

* * *

assay: Pharmacokinetic study in rats after oral administration of SYD extract and its single and combined TCM extracts (UPLC-MS/MS of plasma); conditions: male, Sprague-Dawley, rat, plasma, po, 3.38 g·kg^−1 (extract), AUC(0–t), rat plasma, oral SN + GU extract, n = 6
metric: AUC(0-t) (ng·h/mL)
Please give a number only; it is taken to be in ng·h/mL.

These recorded examples may help you get a feel for the data.
compound	AUC(0-t), ng·h/mL
COc1ccc(CCO[C@@H]2O[C@H](CO[C@@H]3OC[C@H](O)[C@H](O)[C@H]3O)[C@@H](OC(=O)/C=C/c3ccc(O)c(OC)c3)[C@H](O[C@@H]3O[C@@H](C)[C@H](O)[C@@H](O)[C@H]3O)[C@H]2O)cc1O [Angoroside C, angoroside C]	410
O=C1C[C@@H](c2ccc(O[C@@H]3O[C@H](CO)[C@@H](O)[C@H](O)[C@H]3O)cc2)Oc2cc(O)ccc21 [Liquiritin, liquiritin]	180

Please examine the following record next.
Short answer for C[C@]1(OC(=O)/C=C/c2ccccc2)C[C@@H](O)[C@]2(O)C=CO[C@@H](O[C@@H]3O[C@H](CO)[C@@H](O)[C@H](O)[C@H]3O)[C@@H]21 [Harpagoside, harpagoside] : AUC(0-t) was 80

* * *

test: Pharmacokinetic study in rats after oral administration of SYD extract and its single and combined TCM extracts (UPLC-MS/MS of plasma); conditions: male, Sprague-Dawley, rat, plasma, po, 3.98 g/kg extract (8.33 g/kg as herbs), MRT(0–t), rat plasma, oral SN + AS extract, n = 6
metric: MRT last (h)
Please give a number only; it is taken to be in h.

molecule	u	MRT last
COc1ccc(CCO[C@@H]2O[C@H](CO[C@@H]3OC[C@H](O)[C@H](O)[C@H]3O)[C@@H](OC(=O)/C=C/c3ccc(O)c(OC)c3)[C@H](O[C@@H]3O[C@@H](C)[C@H](O)[C@@H](O)[C@H]3O)[C@H]2O)cc1O [Angoroside C, angoroside C]	h	2.85

Please examine the following record next.
Short answer for C[C@]1(OC(=O)/C=C/c2ccccc2)C[C@@H](O)[C@]2(O)C=CO[C@@H](O[C@@H]3O[C@H](CO)[C@@H](O)[C@H](O)[C@H]3O)[C@@H]21 [Harpagoside, harpagoside] : MRT last was 4.51

* * *

test: in vivo; details: male, Sprague-Dawley, rat, po, 2.15 g/kg, MRT(0–t)
metric: MRT last (h)
Please give a number only; it is taken to be in h.

Short answer for C=C[C@H]1[C@H](O[C@@H]2O[C@H](CO)[C@@H](O)[C@H](O)[C@H]2O)OC=C2C(=O)OCC[C@H]21 [Sweroside, sweroside] : MRT last was 4.46

* * *

half-life overview
assay: Pharmacokinetic study in rats after oral administration of SYD extract and its single and combined TCM extracts (UPLC-MS/MS of plasma); conditions: male, Sprague-Dawley, rat, plasma, po, 2.15 g/kg, t1/2, rat plasma, oral LJ extract 2.15 g/kg, n = 6
Please give a number only; it is taken to be in h.

> print(dat)
                                        mol     metric  u  test.result
1  O=C(/C=C/c1ccc(O)c(O)c1)O[C@@H]1C[C@](O)(C(=O)O)C[C@@H](O)[C@H]1O  half-life  h         9.39

Please examine the following record next.
Short answer for COC(=O)C1=CO[C@@H](O[C@@H]2O[C@H](CO)[C@@H](O)[C@H](O)[C@H]2O)[C@@H]2[C@@H](C)[C@@H](O)C[C@H]12 : half-life was 6.71
